Tested on: A. baumannii JMI7
Test: In vitro antimicrobial activity, MIC by broth microdilution (CLSI)
Type: cell-based
Conditions: Acinetobacter baumannii, JMI7; PER-1, OXA-23, 51, ESBL and OXA-type carbapenemase producing strain; 5×10^5 cfu/mL; cation-adjusted Iso-Sensitest broth containing human Apo-transferrin; read-out: Minimum Inhibitory Concentration (MIC) A. baumannii JMI:7
Reported MIC values are given for each entry in this list.
Hi! Could you send only the number? It should be in µg/mL, unit omitted.

Worked cases, answers included:
Problem: Param readout = MIC; param system = A. baumannii JMI7; param query = C[C@@H]1S[C@@H]2[C@H](NC(=O)/C(=N\OC(C)(C)C(=O)[O-])c3csc(N)n3)C(=O)N2C(C(=O)O)=C1C[N+]12CCC(CNC(=O)/C(=N\OCC(=O)O)c3ccc(O)c(O)c3Cl)(CC1)C2 [Compound I-101] ; response: value
Solution: 0.25

Problem: Recorded MIC for C[C@@H]1S[C@@H]2[C@H](NC(=O)/C(=N\OC(C)(C)C(=O)[O-])c3csc(N)n3)C(=O)N2C(C(=O)[O-])=C1C[N+]1(C)[C@@H]2CC[C@H]1C[C@@H](N1C(=O)c3cc(O)c(O)cc3C1=O)C2.[Na+] (some centres unmarked) [Compound I-77] with A. baumannii JMI7, please?
Solution: 0.5

Problem: Test system A. baumannii JMI7; read-out MIC; what value for C[C@@H]1S[C@@H]2[C@H](NC(=O)/C(=N\OC(C)(C)C(=O)[O-])c3csc(N)n3)C(=O)N2C(C(=O)[O-])=C1C[N+]12CCC(CC1)N(C(=O)C(=O)c1cc(O)c(O)c(Cl)c1)CC2.[Na+] [Compound I-16] ?
Solution: 1

Problem: Request - read-out MIC | tested on A. baumannii JMI7 | compound C[C@@H]1S[C@@H]2[C@H](NC(=O)/C(=N\OC(C)(C)C(=O)[O-])c3csc(N)n3)C(=O)N2C(C(=O)[O-])=C1C[N+]1(CCNC(=O)c2cc(O)c(O)c(Cl)c2)CCCC1.[Na+] [Compound I-61]
Solution: 2

New cases:
Problem: Given the entry C[C@@H]1S[C@@H]2[C@H](NC(=O)/C(=N\OC(C)(C)C(=O)[O-])c3csc(N)n3)C(=O)N2C(C(=O)O)=C1C[N@+]1(C)[C@@H]2CC[C@H]1C[C@@H](NC(=O)c1cn(C3CC3)c3cc(O)c(O)c(Cl)c3c1=O)C2 [Compound I-120] , what MIC was observed with A. baumannii JMI7?
Solution: 0.5

Problem: Find the measured MIC: item C[C@@H]1S[C@@H]2[C@H](NC(=O)/C(=N\OC(C)(C)C(=O)[O-])c3csc(N)n3)C(=O)N2C(C(=O)[O-])=C1C[N+]12CCC(CNC(=O)C(=O)c3ccc(O)c(O)c3Cl)(CC1)CC2.[Na+] [Compound I-3] , target or system A. baumannii JMI7.
Solution: 0.5

Problem: Please tell me: MIC of C[C@@H]1S[C@@H]2[C@H](NC(=O)/C(=N\OC(C)(C)C(=O)[O-])c3csc(N)n3)C(=O)N2C(C(=O)[O-])=C1C[N+]12CCC[C@H]1CN(C(=O)c1cc(O)c(O)c(Cl)c1)CC2.[Na+] (some centres unmarked) [Compound I-64] , system A. baumannii JMI7?
Solution: 2

The measurements presented in this section are drawn from patent US10174053B2.
